Test: Pharmacokinetics assay in rats, intragastric administration, plasma by LC/MS/MS
Type: in vivo, Sprague-Dawley (SD) rats
Conditions: both sexes, Sprague-Dawley, rat, plasma, po, SD rats, 10 mg/kg, read-out: Mean Residence Time MRT
Method: Rats were used as test animals. […] The pharmacokinetic behavior of the compounds of the present invention was studied and evaluated in rats. 56 Healthy adult Sprague-Dawley (SD) rats, half male and half female, purchased from SINO-BRITSH SIPPR/BK LAB. The appropriate amount of test compounds were weighed and mixed with 1.0 mL of dimethyl sulfoxide to prepare a 1.0 mg/mL suspension. […]
Below, each of the molecules is paired with its reported MRT value.
Supply the numeric figure in h, leaving out any unit text.

Consider the following illustrative entries.
> print(dat)
                                   molecule  readout.units  reported
1  CCc1nsc(NC(=O)N2C[C@H]3C[C@H](N(C)c4ncnc5[nH]ccc45)C[C@H]3C2)n1 [Example 48]              h       3.4
2  COc1nsc(NC(=O)N2C[C@H]3C[C@H](N(C)c4ncnc5[nH]ccc45)C[C@H]3C2)n1 [Example 34]              h      3.81

Incoming: Fill in MRT for record CN(c1ncnc2[nH]ccc12)[C@H]1C[C@@H]2CN(C(=O)CO)C[C@@H]2C1 [Example 6]
Outgoing: 2.19

Incoming: Fill in MRT for record CN(c1ncnc2[nH]ccc12)[C@H]1C[C@@H]2CN(C(=O)CCC#N)C[C@@H]2C1 [Example 22]
Outgoing: 2.6

Incoming: Fill in MRT for record CN(c1ncnc2[nH]ccc12)[C@H]1C[C@@H]2CN(C(=O)Nc3nc(OCC(C)(C)O)ns3)C[C@@H]2C1 [Example 99]
Outgoing: 3.81

Incoming: Fill in MRT for record CC(=O)N1CC[C@H]2CC(N(C)c3ncnc4[nH]ccc34)C[C@H]2C1 (stereo partly drawn) [Example 35]
Outgoing: 3.02

----------
target: JAK3 kinase (Homo sapiens (Human))
Sequence (P52333 whole entry): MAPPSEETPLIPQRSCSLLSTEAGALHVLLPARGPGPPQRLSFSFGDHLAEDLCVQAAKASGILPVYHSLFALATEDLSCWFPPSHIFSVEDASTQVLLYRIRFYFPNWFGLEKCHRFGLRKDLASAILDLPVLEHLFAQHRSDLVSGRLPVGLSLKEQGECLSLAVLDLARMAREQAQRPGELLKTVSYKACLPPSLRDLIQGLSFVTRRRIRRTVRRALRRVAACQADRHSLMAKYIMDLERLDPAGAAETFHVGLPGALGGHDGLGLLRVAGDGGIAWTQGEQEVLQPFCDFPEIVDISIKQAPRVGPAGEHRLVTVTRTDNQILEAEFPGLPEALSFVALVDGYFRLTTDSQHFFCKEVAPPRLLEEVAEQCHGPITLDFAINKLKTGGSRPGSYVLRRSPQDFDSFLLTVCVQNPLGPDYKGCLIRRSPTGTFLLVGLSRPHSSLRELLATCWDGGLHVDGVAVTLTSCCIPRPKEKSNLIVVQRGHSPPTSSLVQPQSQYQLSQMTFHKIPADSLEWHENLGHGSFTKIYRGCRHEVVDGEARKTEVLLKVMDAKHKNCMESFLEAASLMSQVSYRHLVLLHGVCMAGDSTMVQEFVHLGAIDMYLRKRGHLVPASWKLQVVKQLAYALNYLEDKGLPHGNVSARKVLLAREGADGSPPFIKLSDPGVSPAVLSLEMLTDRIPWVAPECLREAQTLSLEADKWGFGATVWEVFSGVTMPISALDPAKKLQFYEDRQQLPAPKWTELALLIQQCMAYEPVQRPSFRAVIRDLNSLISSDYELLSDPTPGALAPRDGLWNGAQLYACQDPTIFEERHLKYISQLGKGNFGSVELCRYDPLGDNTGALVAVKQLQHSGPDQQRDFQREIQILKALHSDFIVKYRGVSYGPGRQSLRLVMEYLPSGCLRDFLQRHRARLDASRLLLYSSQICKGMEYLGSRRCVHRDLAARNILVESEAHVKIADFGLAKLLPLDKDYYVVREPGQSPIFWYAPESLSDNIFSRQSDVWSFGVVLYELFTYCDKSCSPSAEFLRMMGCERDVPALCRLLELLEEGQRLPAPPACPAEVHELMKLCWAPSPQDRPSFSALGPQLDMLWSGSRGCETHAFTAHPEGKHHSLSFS
pIC50: −log10 of the molar value.
Lab note: anything with pIC50 at or over 8 counts as t; the rest go in f.

Check out these entries, answers already filled in.
> print(dat)
                                chem.smiles                              target  discrete.label
1  CN(c1ncnc2[nH]ccc12)[C@H]1C[C@@H]2CN(CC(F)(F)F)C[C@@H]2C1  JAK3 kinase (Homo sapiens (Human))               f
2  CN(c1ncnc2[nH]cc(F)c12)[C@H]1C[C@@H]2CN(C(=O)CO)C[C@@H]2C1  JAK3 kinase (Homo sapiens (Human))               t

Incoming: Record `CN(c1ncnc2[nH]ccc12)[C@H]1C[C@@H]2CN(C(=O)Nc3nc(CO)ns3)C[C@@H]2C1` ; criterion: pIC50 no lower than 8. Met?
Outgoing: f

Incoming: Record `CN(c1ncnc2[nH]ccc12)[C@H]1C[C@@H]2CN(C(=O)OCC(F)(F)F)C[C@@H]2C1` ; criterion: pIC50 no lower than 8. Met?
Outgoing: f

Incoming: Record `CN(c1ncnc2[nH]ccc12)[C@@H]1C[C@@H]2CN(CC#N)C[C@@H]2C1` ; criterion: pIC50 no lower than 8. Met?
Outgoing: f

----------
Below, each of the compounds is paired with its reported half-life value.
test: Pharmacokinetics assay in rats, intragastric administration, plasma by LC/MS/MS; format: in vivo, Sprague-Dawley (SD) rats; conditions: both sexes, Sprague-Dawley, rat, plasma, po, SD rats, 10 mg/kg, read-out: Half-Life t½ (converted)
Supply the numeric figure in h, leaving out any unit text.

Consider the following illustrative entries.
> print(dat)
                                   compound  readout.units  reported
1  CN(c1ncnc2[nH]ccc12)[C@H]1C[C@@H]2CN(C(=O)CCC#N)C[C@@H]2C1              h      2.87
2  CCc1nsc(NC(=O)N2C[C@H]3C[C@H](N(C)c4ncnc5[nH]ccc45)C[C@H]3C2)n1              h      2.43
3  C[C@H](O)C(=O)N1C[C@H]2C[C@H](N(C)c3ncnc4[nH]ccc34)C[C@H]2C1              h      2.03

Incoming: Fill in half-life for record `CN(c1ncnc2[nH]ccc12)[C@H]1C[C@H]2CNC(=O)C[C@H]2C1`
Outgoing: 2.72

Incoming: Fill in half-life for record CN(c1ncnc2[nH]ccc12)[C@@H]1CC2CNC(=O)CC2C1 (stereo partly shown)
Outgoing: 2.72

Incoming: Fill in half-life for record `CN(c1ncnc2[nH]cc(F)c12)[C@H]1C[C@@H]2CN(C(=O)CO)C[C@@H]2C1`
Outgoing: 1.62

Incoming: Fill in half-life for record CC(=O)N1CC[C@H]2CC(N(C)c3ncnc4[nH]ccc34)C[C@H]2C1 (stereo partly shown)
Outgoing: 2.11

Incoming: Fill in half-life for record `COc1nsc(NC(=O)N2C[C@H]3C[C@H](N(C)c4ncnc5[nH]ccc45)C[C@H]3C2)n1`
Outgoing: 2.1

Incoming: Fill in half-life for record `CN(c1ncnc2[nH]ccc12)[C@H]1C[C@@H]2CN(C(=O)CO)C[C@@H]2C1`
Outgoing: 4.01

Incoming: Fill in half-life for record `CN(c1ncnc2[nH]ccc12)[C@H]1C[C@@H]2CN(C(=O)Nc3nc(OCC(C)(C)O)ns3)C[C@@H]2C1`
Outgoing: 2.1
